- Species on record: Oryctolagus cuniculus
- protocol description: Concentration required to relax phenylephrine-precontracted aortic rings by 50% in endothelium denuded rabbit aorta
- condition details: read-out: ED50 (the source's name)
experimental endpoint: EC50 (µM)
State the answer as a number, implicitly in µM.

Observe how each entry below is paired with its result.
C#CC(CC)ON=C1CC2CCC(C1)N2C (configuration not stated)	41
C#CC(CC)ON=C1CCN(C)CC1 (configuration not stated)	18
C#CCON=C1CC2CCC(C1)N2C	7.1
C#CCCCON=C1CCN(C)CC1	13
CN1C2CCC1CC(=NO)C2	320
C#CCCON=C1CCN(C)CC1	28

Please find the next compound below.
Data request: Reported EC50, compound CN1CCC(=NO)CC1 : ____
Data returned: 78
